Tested on: rat ileum smooth muscle
Experiment: Rat ileum smooth muscle test
Conditions: organ bath, Kreb's solution, 37°C, 10^−11 to 10^−6 M, n = 5; read-out: EC50 causing rat ileum smooth muscle relaxations
Protocol: Female Wistar rats (250–300 g) were euthanized by CO2 asphyxiation followed by cervical dislocation under appropriate Home Office (UK) animal licenses. […] Changes in tension of the smooth muscle preparations were detected by pressure transducers connected to a PowerLab System (ADInstruments Pty Ltd.). Data were recorded and calculated to obtain the means of responses and standard error of means (SEM). […]
property: EC50

Query :: Using the record for N2H-GLLDSLLGGLGL-CONH2 [S5-Caeridin-1, novel Caeridin peptide from Litoria caerulea skin secretion, synthetic replicate, C-terminally amidated] , report its EC50.
Result :: 9.5 nM

---

Tested on: human microvascular endothelial cell line HMEC-1
Test: Membrane permeabilisation of HMEC-1 (LDH release)
Format: cell-based
Conditions: 100 μM, LDH release, 24 h
Ends that are not written are not given here.
property: cytotoxicity to HMEC-1 cells

substance	observedValue
N2H-GLLDSLLGGLGL-CONH2 [S5-Caeridin-1, novel Caeridin peptide from Litoria caerulea skin secretion, synthetic replicate, C-terminally amidated]	weak cytotoxicity
RPPGFSPFR [Bradykinin, reference compound]	weak cytotoxicity
GLLDGLLGTLGL-NH2 [Caeridin-1]	weak cytotoxicity
